Data origin: ChEMBL document CHEMBL1128944

Reported IC90 values for the following compounds.
biological target: Human immunodeficiency virus type 1 protease (Human immunodeficiency virus 1) (UniProt Q72874); experiment: Inhibitory activity against HIV-1 RF infected MT-2 cells; format: functional, cell-based; details: MT2
Note: unit nM is implicit; provide only the numeric part.

smiles	IC90 (nM)
O=C1N(Cc2ccc3ncoc3c2)[C@H](Cc2ccccc2)[C@H](O)[C@@H](O)[C@@H](Cc2ccccc2)N1Cc1ccc2ncoc2c1	440
O=C1N(Cc2ccc3[nH]nnc3c2)[C@H](Cc2ccccc2)[C@H](O)[C@@H](O)[C@@H](Cc2ccccc2)N1Cc1ccc2[nH]nnc2c1	530

Form: compound = `O=C1N(Cc2ccc3[nH]ncc3c2)[C@H](Cc2ccccc2)[C@H](O)[C@@H](O)[C@@H](Cc2ccccc2)N1Cc1ccc2[nH]ncc2c1` ; IC90 = 8

Form: compound = `O=C1N(Cc2ccc3nc(O)oc3c2)[C@H](Cc2ccccc2)[C@H](O)[C@@H](O)[C@@H](Cc2ccccc2)N1Cc1ccc2nc(O)oc2c1` ; IC90 = 40

Form: compound = `O=C1N(Cc2ccc(CO)cc2)[C@H](Cc2ccccc2)[C@H](O)[C@@H](O)[C@@H](Cc2ccccc2)N1Cc1ccc(CO)cc1` ; IC90 = 100

Form: compound = `O=C1N(Cc2ccc3nc(S)oc3c2)[C@H](Cc2ccccc2)[C@H](O)[C@@H](O)[C@@H](Cc2ccccc2)N1Cc1ccc2nc(S)oc2c1` ; IC90 = 5100

Form: compound = `O=C1N(Cc2ccc3[nH]cnc3c2)[C@H](Cc2ccccc2)[C@H](O)[C@@H](O)[C@@H](Cc2ccccc2)N1Cc1ccc2[nH]cnc2c1` ; IC90 = 19000

Form: compound = `O=C1Cc2cc(CN3C(=O)N(Cc4ccc5c(c4)CC(=O)N5)[C@H](Cc4ccccc4)[C@H](O)[C@@H](O)[C@H]3Cc3ccccc3)ccc2N1` ; IC90 = 370

Form: compound = `O=C1N(Cc2ccc3nc(O)sc3c2)[C@H](Cc2ccccc2)[C@H](O)[C@@H](O)[C@@H](Cc2ccccc2)N1Cc1ccc2nc(O)sc2c1` ; IC90 = 109

Form: compound = `O=C1N(Cc2ccc3c(c2)NS(=O)(=O)N3)[C@H](Cc2ccccc2)[C@H](O)[C@@H](O)[C@@H](Cc2ccccc2)N1Cc1ccc2c(c1)NS(=O)(=O)N2` ; IC90 = 32000

Form: compound = `O=C1N(Cc2ccc3nc(O)cnc3c2)[C@H](Cc2ccccc2)[C@H](O)[C@@H](O)[C@@H](Cc2ccccc2)N1Cc1ccc2nc(O)cnc2c1` ; IC90 = 7800

Form: compound = `O=C1N(Cc2ccc3c[nH]nc3c2)[C@H](Cc2ccccc2)[C@H](O)[C@@H](O)[C@@H](Cc2ccccc2)N1Cc1ccc2c[nH]nc2c1` ; IC90 = 49

====

assay: Maximum concentration was evaluated in dog plasma; assay type: ADME, organism-based, Canis lupus familiaris
recorded-endpoint: Cmax

Form: compound = `O=C1N(Cc2ccc3[nH]ncc3c2)[C@H](Cc2ccccc2)[C@H](O)[C@@H](O)[C@@H](Cc2ccccc2)N1Cc1ccc2[nH]ncc2c1` ; Cmax = 600 ng/mL

====

assay: Plasma Clearance was evaluated in rats, iv; assay type: ADME, organism-based; settings: rat
recorded-endpoint: clearance (mL/min/kg)
Note: unit mL/min/kg is implicit; provide only the numeric part.

molecule	scale-unit	endpoint-value
O=C1N(Cc2ccc(CO)cc2)[C@H](Cc2ccccc2)[C@H](O)[C@@H](O)[C@@H](Cc2ccccc2)N1Cc1ccc(CO)cc1 [DMP-323]	mL/min/kg	118

Form: molecule = `O=C1N(Cc2ccc3[nH]ncc3c2)[C@H](Cc2ccccc2)[C@H](O)[C@@H](O)[C@@H](Cc2ccccc2)N1Cc1ccc2[nH]ncc2c1` ; clearance = 3.33
